Assay Protocol: ADME solubility determination in PBS at pH 2.0 and pH 7.4
Assay type: physicochemical
Details: phosphate buffered saline, 25 °C, pH 7.4, aqueous buffer, thermodynamic from solid, PBS pH 7.4, 25° C., read-out: Solubility at pH 7.4
Property Measured: solubility at 24 h

Completed entries (count: 3):
-- ask Answer with the recorded solubility at 24 h of CCn1cc(C(F)(F)F)nc1-c1ccc(N(CCO)C2CCCn3nc(-c4c(Cl)cnn4C(C)C)cc32)cc1F (centres unmarked) only.
-- reply < 10 µM

-- ask Report solubility at 24 h for CCn1cc(C(F)(F)F)nc1-c1ccc(OC2CCCn3nc(-c4c(Cl)cnn4C(C)C)cc32)cc1F (centres unmarked)
-- reply < 10 µM

-- ask Query solubility at 24 h for CCn1cc(C(F)(F)F)nc1-c1ccc(CC2OCCn3nc(-c4c(Cl)cnn4C(C)C)cc32)cc1 (centres unmarked)
-- reply < 10 µM

***
-- ask Annotate the compound COc1ncnc(C2CC2)c1-c1cc2n(n1)CCCC2Nc1ccc(-c2nc(C(F)(F)F)cn2C(C)CF)cc1 (centres unmarked) with its measured solubility at 24 h.
-- reply ≥ 10 µM

-- ask Find the measured solubility at 24 h of CCn1cc(C(F)(F)F)nc1-c1ccc(CN2C(=O)CCn3nc(-c4c(Cl)cnn4C(C)C)c(C#N)c32)cc1 and report it.
-- reply < 10 µM

----------
Overview of reported half-life at 1 μM across a group of molecules:
Assay Protocol: Liver microsomal metabolic stability, rat liver microsomes (RLM)
Details: rat, liver microsomes, t1/2 (min) in RLM, 1 μM compound, 1 mg/mL microsomes, NADPH

-- ask Please report the measured half-life at 1 μM for COc1cc(C#N)nn1-c1ccc(CN2C(=O)CCn3nc(-c4c(Cl)cnn4C(C)C)cc32)cc1
-- reply > 25 min

-- ask Answer with the recorded half-life at 1 μM for the molecule listed here: CCn1cc(C(F)(F)F)nc1-c1ccc(CC2c3cc(-c4c(Cl)cnn4C(C)C)nn3CCN2C)cc1 (stereo not shown)
-- reply < 25 min

-- ask # return recorded half-life at 1 μM for entry COc1ncnc(C2CC2)c1-c1cc2n(n1)CCC(=O)N2Cc1ccc(-n2nc(C(F)(F)F)cc2OC)c(F)c1
-- reply > 25 min

-- ask Specify reported half-life at 1 μM for the molecule shown: COCc1cc(C(F)(F)F)nn1-c1ccc(CN2C(=O)CCn3nc(-c4c(Cl)cnn4C(C)C)cc32)cc1
-- reply < 25 min

-- ask Determine its reported half-life at 1 μM: CCn1cc(C(F)(F)F)nc1-c1ccc(CN2C(=O)CCn3nc(-c4c(Cl)cnn4[C@@H](C)COC)cc32)cc1F
-- reply < 25 min

-- ask Retrieve half-life at 1 μM measured for CCn1cc(C(F)(F)F)nc1-c1ccc(CNC2CCCn3nc(-c4c(Cl)cnn4C(C)C)cc32)cc1 (stereo not shown) and print it.
-- reply < 25 min

Next:
-- ask Name the recorded half-life at 1 μM of the molecule listed here: COc1ncnc(C2CC2)c1-c1cc2n(n1)CCCC2Nc1ccc(-c2nc(C(F)(F)F)cn2C(C)CF)cc1 (stereo not shown)
-- reply > 25 min

----------
Target Or Test System: USP1/UAF1 enzyme (Homo sapiens, UniProt O94782)
Sequence (O94782 whole entry): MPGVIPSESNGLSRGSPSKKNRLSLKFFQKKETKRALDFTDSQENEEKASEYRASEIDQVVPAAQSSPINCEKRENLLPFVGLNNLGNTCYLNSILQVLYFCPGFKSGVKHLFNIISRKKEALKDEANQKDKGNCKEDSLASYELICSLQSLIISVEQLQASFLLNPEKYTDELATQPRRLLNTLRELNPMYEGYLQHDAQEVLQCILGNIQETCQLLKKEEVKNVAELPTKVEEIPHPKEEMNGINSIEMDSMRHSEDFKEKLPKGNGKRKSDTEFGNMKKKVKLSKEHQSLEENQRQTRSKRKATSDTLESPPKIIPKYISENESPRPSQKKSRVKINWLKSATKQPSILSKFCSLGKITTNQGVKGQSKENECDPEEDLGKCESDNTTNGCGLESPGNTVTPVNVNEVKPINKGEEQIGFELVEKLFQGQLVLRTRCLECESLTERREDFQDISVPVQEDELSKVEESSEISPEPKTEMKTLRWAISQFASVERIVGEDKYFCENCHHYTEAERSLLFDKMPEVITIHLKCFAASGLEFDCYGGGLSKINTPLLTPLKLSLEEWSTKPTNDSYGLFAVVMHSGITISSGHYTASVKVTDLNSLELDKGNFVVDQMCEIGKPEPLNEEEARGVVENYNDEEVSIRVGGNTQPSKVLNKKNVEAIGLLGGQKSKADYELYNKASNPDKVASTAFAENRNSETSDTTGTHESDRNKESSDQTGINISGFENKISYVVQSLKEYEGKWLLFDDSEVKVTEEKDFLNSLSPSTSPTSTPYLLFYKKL
Sequence (Q8TAF3 whole entry partner): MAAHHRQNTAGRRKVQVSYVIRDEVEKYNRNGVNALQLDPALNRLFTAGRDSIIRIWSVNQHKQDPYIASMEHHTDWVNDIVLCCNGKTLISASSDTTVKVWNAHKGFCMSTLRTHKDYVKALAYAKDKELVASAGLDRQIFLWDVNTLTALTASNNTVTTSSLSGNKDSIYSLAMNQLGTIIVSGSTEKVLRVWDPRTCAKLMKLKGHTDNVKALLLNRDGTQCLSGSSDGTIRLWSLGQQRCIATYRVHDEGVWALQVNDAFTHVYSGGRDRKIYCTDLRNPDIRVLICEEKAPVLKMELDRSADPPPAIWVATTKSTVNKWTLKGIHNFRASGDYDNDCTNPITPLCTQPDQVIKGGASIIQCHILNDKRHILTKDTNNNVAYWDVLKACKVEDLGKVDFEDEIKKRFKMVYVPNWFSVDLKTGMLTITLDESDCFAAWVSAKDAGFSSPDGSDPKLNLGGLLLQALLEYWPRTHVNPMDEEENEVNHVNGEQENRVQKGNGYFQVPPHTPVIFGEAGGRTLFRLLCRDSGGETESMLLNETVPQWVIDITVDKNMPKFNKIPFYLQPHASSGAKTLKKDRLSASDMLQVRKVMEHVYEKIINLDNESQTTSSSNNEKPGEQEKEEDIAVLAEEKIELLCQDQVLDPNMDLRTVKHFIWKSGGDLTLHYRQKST
Assay Protocol: USP1/UAF1 deubiquitination assay (ubiquitin-rhodamine 110 substrate)
Details: read-out: USP1 IC50 (Ub-Rho)
molecules and their reported IC50

Here are 8 molecules together with their reported answers.
-- ask Entry CCn1cc(C(F)(F)F)nc1-c1ccc([C@H](C)N2C(=O)CCn3nc(-c4c(OC)ncnc4C4CC4)nc32)cc1F [Example 190] needs its IC50 filled in; supply it.
-- reply < 100 nM

-- ask Answer with reported IC50 of COCc1cc(C(F)(F)F)nn1-c1ccc(CN2C(=O)CCn3nc(-c4c(OC)ncnc4C4CC4)cc32)cc1 [Example 99]
-- reply 100 to 500 nM

-- ask Return IC50 (reported value) for this molecule: CC(C)n1ncc(Cl)c1-c1cc2n(n1)CCC(=O)N2Cc1ccc(-c2nc(C(F)(F)F)cn2C)cc1 [Example 98]
-- reply < 100 nM

-- ask For COc1ccnc(C(C)C)c1-c1cc2n(n1)CCC(=O)N2Cc1ccc(-c2nc(C(F)(F)F)cn2C)cc1 [Example 13] , write its IC50.
-- reply 100 to 500 nM

-- ask Entry CC(CF)n1cc(C(F)(F)F)nc1-c1ccc(CN2C(=O)CCn3nc(-c4c(OC(F)F)ncnc4C4CC4)nc32)cc1 (centres unmarked) [Example 366] needs its IC50 filled in; supply it.
-- reply < 100 nM

-- ask Give the measured IC50 for CCn1cc(C(F)(F)F)nc1-c1ccc(CN2C(=O)CCn3nc(-c4c(Cl)cnn4C4COC4)cc32)cc1 [Example 154]
-- reply < 100 nM

-- ask # return recorded IC50 for input CNCc1cc(C(F)(F)F)nn1-c1ccc(CN2C(=O)CCn3nc(-c4c(OC)ncnc4C4CC4)cc32)cc1 [Example 225]
-- reply 100 to 500 nM

-- ask Please look at this molecule and report its IC50: COc1cc(C)cnc1-c1ccc(CN2C(=O)CCn3nc(-c4c(Cl)cnn4C(C)C)cc32)cc1Cl [Example 301]
-- reply 100 to 500 nM

More entries:
-- ask For the molecule COc1ncnc(C2CC2)c1-c1cc2n(n1)CCC(=O)N2Cc1ccc(-n2nc(C(F)(F)F)cc2OC)nc1 [Example 94] , give its measured IC50 value.
-- reply 100 to 500 nM

-- ask Kindly indicate its recorded IC50. Item: CCn1cc(C(F)(F)F)nc1-c1ccc([C@H](C)N2C(=O)CCn3nc(-c4c(OC(F)F)ncnc4C4CC4)nc32)cc1 [Example 209]
-- reply < 100 nM

-- ask Write down IC50 measured for item COc1ncnc(C2CC2)c1-c1nc2n(n1)CCC(=O)N2[C@H](C)c1ccc(-c2nc(C(F)(F)F)cn2C(C)C)cc1 [Example 189]
-- reply < 100 nM

-- ask Return value of IC50 for input CCn1cc(C(F)(F)F)nc1-c1ccc(NC2CCCc3nn(-c4ccccc4C(C)C)cc32)cc1F (centres unmarked) [Example 355] , no commentary.
-- reply < 100 nM

-- ask Identify measured IC50 corresponding to CC(C)n1ncc(Cl)c1-c1cc2n(n1)CCC(=O)N2Cc1ccc(-c2nccc(C(F)(F)F)n2)c(Cl)c1 [Example 273]
-- reply > 500 nM

-- ask Look up and state reported IC50 for COc1ccc(C)nc1-c1ccc(CN2C(=O)CCn3nc(-c4c(Cl)cnn4C(C)C)cc32)cc1Cl [Example 309]
-- reply < 100 nM

----------
Assay Protocol: Liver microsomal metabolic stability, human liver microsomes (HLM)
Details: human, liver microsomes
Property Measured: half-life at 1 μM

Observe how each entry below is paired with its result.
-- ask State, in one line, measured half-life at 1 μM of CCn1cc(C(F)(F)F)nc1-c1ccc(CN2C(=O)CCn3nc(-c4c(Cl)cnn4C4COC4)cc32)cc1 [Example 154]
-- reply > 25 min

-- ask Give reported half-life at 1 μM value for CCn1cc(C(F)(F)F)nc1-c1ccc(C(C)N2C(=O)CCn3nc(-c4c(OC)ncnc4C4CC4)cc32)cc1 (centres unmarked) [Example 114]
-- reply > 25 min

-- ask # return recorded half-life at 1 μM for input CCn1cc(C(F)(F)F)nc1-c1ccc(CN2C(=O)C(C)Cn3nc(-c4c(Cl)cnn4C(C)C)nc32)cc1F (centres unmarked) [Example 350]
-- reply > 25 min

-- ask Quick one: give measured half-life at 1 μM for COc1ncnc(C2CC2)c1-c1nc2n(n1)CCC(=O)N2[C@H](C)c1ccc(-c2nc(C(F)(F)F)cn2C(C)C)c(F)c1 [Example 174]
-- reply > 25 min

-- ask Tell us which half-life at 1 μM value is on record for Cc1cc(C(F)(F)F)nn1-c1ccc(CN2C(=O)CCn3nc(-c4c(Cl)cnn4C(C)C)cc32)cc1F [Example 104]
-- reply > 25 min

-- ask Report measured half-life at 1 μM; entry is COc1ncnc(C2CC2)c1-c1cc2n(n1)CCCC2Nc1ccc(-c2nc(C(F)(F)F)cn2C(C)CF)cc1 (centres unmarked) [Example 248]
-- reply > 25 min

-- ask For CCn1cc(C(F)(F)F)nc1-c1ccc([C@H](C)N2C(=O)CCn3nc(-c4c(OC)ncnc4C4CC4)nc32)cc1F [Example 190] , write its half-life at 1 μM.
-- reply > 25 min

-- ask Please look at this compound and report its half-life at 1 μM: COc1ncnc(C2CC2)c1-c1cc2n(n1)CCC(=O)N2Cc1ccc(-n2nc(C(F)(F)F)cc2C)cc1 [Example 4]
-- reply > 25 min

Continuing:
-- ask Input CCn1cc(C(F)(F)F)nc1-c1ccc(CN2C(=O)CCn3nc(-c4c(OC)ncnc4C4CC4)cc32)cc1F [Example 78] , output reported half-life at 1 μM.
-- reply > 25 min

-- ask Using the record for Cc1cnn(C(C)C)c1-c1cc2n(n1)CC(C)C(=O)N2Cc1ccc(-c2nc(C(F)(F)F)cn2C)cc1 (centres unmarked) [Example 31] , state its measured half-life at 1 μM.
-- reply < 25 min

-- ask Specify measured half-life at 1 μM for CCn1cc(C(F)(F)F)nc1-c1ccc(CN2C(=O)CCn3nc(-c4c(OC)ncnc4C4CC4)nc32)cc1F [Example 44] .
-- reply > 25 min
